# Test system: SF-295 CNS
# Test summary: NCI-60 one-dose screen, 48 h (100 = growth as untreated, 0 = no growth, -100 = all killed)
# Applied conditions: 10 µM unless noted
The panel holds about 83,000 compounds, 20% with a hit somewhere; the sample as a whole holds those more often. The source made the active and inactive calls. The calls were made as follows: active = growth percent below 10; inactive = the rest.
Entries and their growth values follow.

**Query** I would be grateful if you could share the reported growth for "COc1cc(/C=C/c2cc(/C=C/c3ccc(O)c(OC)c3)n(C(=O)c3ccccc3Br)n2)ccc1O" .
**Result** -29.7% (active)

**Query** Likewise for CC(=O)NC1C(O[C@H]2C[C@H]3[C@@H]4CC=C5C[C@@H](O)CC[C@]5(C)[C@H]4CC[C@]3(C)[C@H]2[C@H](C)C(=O)CCC(C)C)OCC(O)C1O (stereo not given in full) ?
**Result** -53.2% (active)

**Query** Queued: "CC(C)CCSc1nc(Nc2ccccc2)c(C#N)c(-c2ccc(F)cc2)n1"
**Result** 34.5% (inactive)

**Query** Next compound up: ClC1(Cl)C2CCCCCCC21 (stereo not given)
**Result** 101% (inactive)

**Query** What about O=C1CCCN1C1CCN2CCCc3cccc1c32 (stereo not given) ?
**Result** 110% (inactive)

----------
# System: HS 578T breast
# Test summary: NCI-60 one-dose screen, 48 h
# Applied conditions: 10 µM unless noted
The panel holds about 83,000 compounds, 20% with a hit somewhere; the sample as a whole holds those more often. Calls of active or inactive are those of the source. How the source made its calls: active means growth percent below 10; inactive means the rest.
Outcomes you can answer with include only these: Yes (active), No (inactive)

| Molecule | Label value |
| --- | --- |
| CO[C@H](C(=O)[C@@H](O)[C@@H](C)O)[C@@H]1Cc2cc3cc(O[C@H]4C[C@@H](O[C@H]5C[C@@H](O)[C@H](O)C(C)O5)[C@H](O)C(C)O4)c(C)c(O)c3c(O)c2C(=O)[C@H]1O[C@H]1C[C@@H](O[C@H]2C[C@@H](O[C@H]3C[C@](C)(O)C(=O)C(C)O3)[C@@H](O)C(C)O2)[C@H](O)C(C)O1 (stereo not given in full) | Yes |
| CCCCCCCCCCCCCC1=NC(C)(C)CN1C(C)C | Yes |
| c1cc(C2CCCCC2)ccc1-c1cnc2nonc2n1 | No |
| CCNCCCn1c2c(c3ccc(Cl)cc3c1=O)C(=O)c1cc(OC)cnc1-2 | No |

**Query** Dear colleague, could you share the recorded outcome for "COc1ccc(/C=C(\C#N)c2cc(OC)c(OC)c(OC)c2)cc1" when you have a moment?
**Result** No

**Query** # iterate: "c1ccc(-c2ccc(-c3ccccc3)[nH]2)cc1"
**Result** No

**Query** Another molecule to look at: "Cc1cc(Nc2c3ccccc3nc3ccccc23)ccc1NS(C)(=O)=O"
**Result** No

**Query** Next up: CC1OC(n2c3ccccc3c3c4c(c5c6ccccc6[nH]c5c32)C(=O)N(CCN2CCOCC2)C4=O)CC(O)C1O (stereo not given)
**Result** No

**Query** Can you handle "CCOC(OCC)c1cnc2nc(NC(C)=O)[nH]c(=O)c2n1" next?
**Result** No

**Query** Entry O=C1CCCN1C1CCN2CCCc3cccc1c32 (stereo not given) please
**Result** No
